Values were extracted from patent US20100022491A1.

target: Adrenergic β2 (Homo sapiens, UniProt P07550); construct: Adherent H292 cells were removed from tissue culture flasks; endogenous in cells; host or cells: H292 cells; assay: Adrenergic β2 mediated cAMP production in H292 cells; assay type: cell-based; details: H292 cells, cAMP by AlphaScreen, 60 minutes at room temperature, rolipram 300 μM; read-out: β2 pEC50 (converted)
Sequence (P07550 whole entry): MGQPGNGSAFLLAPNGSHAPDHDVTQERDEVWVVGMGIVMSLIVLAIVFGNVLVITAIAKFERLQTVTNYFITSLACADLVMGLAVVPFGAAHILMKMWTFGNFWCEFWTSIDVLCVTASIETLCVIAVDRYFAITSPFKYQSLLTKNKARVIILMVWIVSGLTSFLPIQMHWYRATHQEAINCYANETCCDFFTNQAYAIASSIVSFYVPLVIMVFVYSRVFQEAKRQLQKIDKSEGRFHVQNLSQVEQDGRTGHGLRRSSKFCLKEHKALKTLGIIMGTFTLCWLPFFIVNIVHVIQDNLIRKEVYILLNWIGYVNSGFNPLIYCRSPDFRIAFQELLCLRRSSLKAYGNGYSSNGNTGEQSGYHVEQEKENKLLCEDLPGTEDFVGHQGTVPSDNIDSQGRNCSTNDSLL
Structures can show the parent of a compound that is named as a salt.
Below, each of the compounds is paired with its reported EC50 value.

compound	EC50 (nM)
O=C(CCNCCc1cccc(Cl)c1)N(CCNCCc1ccc(O)c2[nH]c(=O)sc12)C1CCCCC1 [Example 12, bis-trifluoroacetic acid salt]	2.51
CC(C)(CO)CN(CCNCCc1ccc(O)c2[nH]c(=O)sc12)C(=O)CCNCCc1cccc(Cl)c1Cl [Example 67, bis-trifluoroacetic acid salt]	20
C[C@H](CNCCC(=O)N(CCNCCc1ccc(O)c2[nH]c(=O)sc12)C1CCCCC1)c1ccccc1 [Example 18, bis-trifluoroacetic acid salt]	3.98
O=C(CCNCCc1ccccn1)N(CCNCCc1ccc(O)c2[nH]c(=O)sc12)C1CCCCC1 [Example 33, bis-trifluoroacetic acid salt]	15.8
O=C(CCNCCc1ccccc1)N(CCNCCc1ccc(O)c2[nH]c(=O)sc12)C1CCCCCC1 [Example 23, bis-trifluoroacetic acid salt]	1
CC(C)(CO)CN(CCNCCc1ccc(O)c2[nH]c(=O)sc12)C(=O)CCNCCc1cccc(Cl)c1 [Example 66, bis-trifluoroacetic acid salt]	12.6
CC(C)N(CCNCCc1ccc(O)c2[nH]c(=O)sc12)C(=O)CCNCCc1ccccc1 [Example 1, bis-trifluoroacetic acid salt]	20
O=C(CCNCCc1cccc(Cl)c1)N(CCNCCc1ccc(O)c2[nH]c(=O)sc12)C1Cc2ccccc2C1 [Example 42, bis-trifluoroacetic acid salt]	15.8
O=C(CCNCCc1ccc(F)c(F)c1)N(CCNCCc1ccc(O)c2[nH]c(=O)sc12)C1CCCCC1 [Example 73, bis-trifluoroacetic acid salt]	5.01
O=C(CCNCCc1cc(F)ccc1F)N(CCNCCc1ccc(O)c2[nH]c(=O)sc12)C1CCCCCC1 [Example 83, bis-trifluoroacetic acid salt]	3.98
Cc1cccc(CCNCCC(=O)N(CCNCCc2ccc(O)c3[nH]c(=O)sc23)CC(C)(C)C)c1 [Example 10, bis-trifluoroacetic acid salt]	5.01
CC(CN(C(=O)CCNCCc1ccccc1)C1CCCCC1)NCCc1ccc(O)c2[nH]c(=O)sc12 (stereo not drawn) [Example 105, bis-trifluoroacetic acid salt]	6.31

* * *

Molecular target: Adrenergic β2 (Homo sapiens, UniProt P07550)
Construct: Adherent H292 cells were removed from tissue culture flasks; endogenous in cells; host or cells: H292 cells
Test: Adrenergic β2 mediated cAMP production in H292 cells
Format: cell-based
Settings: H292 cells, cAMP by AlphaScreen, 60 minutes at room temperature, rolipram 300 μM; read-out: β2 pEC50 (converted)
Method: Adrenergic β2 mediated cAMP production H292 cells were grown in 225 cm2 flasks incubator at 37° C., 5% CO2 in RPMI medium containing, 10% (v/v) FBS (foetal bovine serum) and 2 mM L-glutamine. […] The concentration of cAMP (cyclic adenosine monophosphate) in the cell lysate was determined using AlphaScreen™ methodology. […] Intrinsic Activity was expressed as a fraction relative to the maximum activity determined for formoterol in each experiment.
Where a name gives a salt, the structure may show the parent alone.

compound	EC50
O=C(CCNCCc1ccc(Cl)cc1)N(CCNCCc1ccc(O)c2[nH]c(=O)sc12)C1CCCCCC1 [Example 51, bis-trifluoroacetic acid salt]	5.01 nM
O=C(NCc1ccccc1)c1ccc(CCNCCC(=O)N(CCNCCc2ccc(O)c3[nH]c(=O)sc23)C2CCCCCC2)cc1 [Example 100, bis-trifluoroacetic acid salt]	6.31 nM
CC(C)(C)CN(CCNCCc1ccc(O)c2[nH]c(=O)sc12)C(=O)CCNCCc1cccc(F)c1 [Example 44, bis-trifluoroacetic acid salt]	6.31 nM
O=C(CCNCCc1ccc(F)cc1)N(CCNCCc1ccc(O)c2[nH]c(=O)sc12)C1CCCCC1 [Example 16, bis-trifluoroacetic acid salt]	3.98 nM
Cc1ccccc1CCNCCC(=O)N(CCNCCc1ccc(O)c2[nH]c(=O)sc12)C1CCOCC1 [Example 27, bis-trifluoroacetic acid salt]	10 nM
CC(C)(C)CN(CCNCCc1ccc(O)c2[nH]c(=O)sc12)C(=O)CCNCCc1ccccc1 [Example 6, bis-trifluoroacetic acid salt]	2 nM
CC(C)(CO)CN(CCNCCc1ccc(O)c2[nH]c(=O)sc12)C(=O)CCNCCc1ccccc1Cl [Example 65, bis-trifluoroacetic acid salt]	12.6 nM
O=C(CCNCCc1cc(F)ccc1F)N(CCNCCc1ccc(O)c2[nH]c(=O)sc12)C1CCCCC1 [Example 79, bis-trifluoroacetic acid salt]	2.51 nM
CC(C)(C)CN(CCNCCc1ccc(O)c2[nH]c(=O)sc12)C(=O)CCNCCc1ccc(Cl)c(Cl)c1 [Example 9, bis-trifluoroacetic acid salt]	7.94 nM
CCCC(CCC)N(CCNCCc1ccc(O)c2[nH]c(=O)sc12)C(=O)CCNCCc1cccc(F)c1 [Example 63, bis-trifluoroacetic acid salt]	79.4 nM
O=C(CCNCCc1ccc(Cl)cc1)N(CCNCCc1ccc(O)c2[nH]c(=O)sc12)C1CCC(F)(F)CC1 [Example 48, bis-trifluoroacetic acid salt]	10 nM
O=C(CCNCCc1cccc(C(F)(F)F)c1)N(CCNCCc1ccc(O)c2[nH]c(=O)sc12)C1CCCCCC1 [Example 82, bis-trifluoroacetic acid salt]	79.4 nM
O=C(CCNCCc1cc(F)cc(F)c1)N(CCNCCc1ccc(O)c2[nH]c(=O)sc12)C1CCCCCC1 [Example 58, bis-trifluoroacetic acid salt]	3.98 nM
O=C(CCNCCc1ccc(F)cc1Cl)N(CCNCCc1ccc(O)c2[nH]c(=O)sc12)C1CCCCCC1 [Example 57, bis-trifluoroacetic acid salt]	20 nM
O=C(CCNCCc1cc(F)cc(F)c1)N(CCNCCc1ccc(O)c2[nH]c(=O)sc12)C1CCCCC1 [Example 78, bis-trifluoroacetic acid salt]	3.16 nM
O=C(CCNCCc1ccc(O)c(Cl)c1)N(CCNCCc1ccc(O)c2[nH]c(=O)sc12)C1CCCCC1 [Example 89, bis-trifluoroacetic acid salt]	1.26 nM
O=C(CCNCCc1cccc(Cl)c1)N(CCNCCc1ccc(O)c2[nH]c(=O)sc12)C1CCCCCC1 [Example 50, bis-trifluoroacetic acid salt]	1.26 nM
CC(C)N(CCNCCc1ccc(O)c2[nH]c(=O)sc12)C(=O)CCNCCc1ccc(Cl)cc1 [Example 3, bis-trifluoroacetic acid salt]	39.8 nM
O=C(CCNCCc1ccccc1)N(CCNCCc1ccc(O)c2[nH]c(=O)sc12)C1CCCCCC1 [Example 98, dihydrobromide salt]	1.58 nM
CC(=O)OCC(C)(C)CN(CCNCCc1ccc(O)c2[nH]c(=O)sc12)C(=O)CCNCCc1ccc(Cl)cc1 [Example 39, acetate diacetic acid salt]	251 nM
O=C(CCNCCc1cccc(F)c1F)N(CCNCCc1ccc(O)c2[nH]c(=O)sc12)C1CCCCCC1 [Example 56, bis-trifluoroacetic acid salt]	5.01 nM
O=C(CCNCCc1ccccc1Cl)N(CCNCCc1ccc(O)c2[nH]c(=O)sc12)C1CCCC1 [Example 29, bis-trifluoroacetic acid salt]	3.98 nM
CCCC[C@@H](C)N(CCNCCc1ccc(O)c2[nH]c(=O)sc12)C(=O)CCNCCc1ccccc1 [Example 101, bis-trifluoroacetic acid salt]	2.51 nM
